- System: U-251
- PROTOCOL DESCRIPTION: NCI tumour cell line growth inhibition, 48 h
Calls of active or inactive are those of the source. Rule as the data show it: active = GI50 up to about 1.1 µM and inactive = higher.
Below is a list of entries, each paired with its recorded GI50 value.

Guide cases for GI50, answers given:
COMPOUND	RESULT
CS(=O)(=O)c1n[nH]c2nc(O)nc(O)c12	> 10 µM (inactive)
S=C(S)N1CCN(c2ccccc2)CC1	48.5 µM (inactive)
CCN(CC)CCCNc1c2c(Cl)cc(Cl)cc2nc2nc(O)nc(C)c12	17.3 µM (inactive)
CCOC(=O)c1csc(NC(=O)CCN2CCCCC2)n1	> 100 µM (inactive)
Cc1ccc(S(=O)(=O)N/N=C2\C=C[C@]3(CC2)C(=O)N(C)c2ccccc23)cc1	> 100 µM (inactive)

Determine from records and report GI50 for S=C(/N=c1\sc(Nc2ccc(Cl)cc2)nc2sc3c(c12)CCN(N1CCc2c(sc4nc(Nc5ccc(Cl)cc5)s/c(=N\C(=S)Nc5ccc(Cl)cc5)c24)C1)C3)Nc1ccc(Cl)cc1
25.1 µM (inactive)

Determine from records and report GI50 for O=C1NC(=S)NC(=O)C1C(c1ccccc1[N+](=O)[O-])C1C(=O)NC(=S)NC1=O.c1ccncc1
> 100 µM (inactive)

Determine from records and report GI50 for COC(=O)c1ccc(NC(=O)c2cc(OC)c(OC)c(OC)c2)cc1
0.236 µM (active)

Determine from records and report GI50 for C[C@H]1CCC/C=C/[C@@H]2C[C@H](OC3OC(CO)C(O)C(O)C3O)C[C@H]2[C@H](O)/C=C/C(=O)O1 (some centres undefined)
94 µM (inactive)
